Test description: Inhibition of p70S6K
pIC50: −log10 of the molar value.
Reported endpoint: pIC50

Ask: Bench note: what pIC50 did O=C(Nc1cccc(-c2ccnc3cc(-c4ccncc4)nn23)c1)c1cccc(C(F)(F)F)c1 show?
Reply: < 4.30

* * *

Test target: UniProtKB P08069
Sequence (P08069 31-736 limits assumed): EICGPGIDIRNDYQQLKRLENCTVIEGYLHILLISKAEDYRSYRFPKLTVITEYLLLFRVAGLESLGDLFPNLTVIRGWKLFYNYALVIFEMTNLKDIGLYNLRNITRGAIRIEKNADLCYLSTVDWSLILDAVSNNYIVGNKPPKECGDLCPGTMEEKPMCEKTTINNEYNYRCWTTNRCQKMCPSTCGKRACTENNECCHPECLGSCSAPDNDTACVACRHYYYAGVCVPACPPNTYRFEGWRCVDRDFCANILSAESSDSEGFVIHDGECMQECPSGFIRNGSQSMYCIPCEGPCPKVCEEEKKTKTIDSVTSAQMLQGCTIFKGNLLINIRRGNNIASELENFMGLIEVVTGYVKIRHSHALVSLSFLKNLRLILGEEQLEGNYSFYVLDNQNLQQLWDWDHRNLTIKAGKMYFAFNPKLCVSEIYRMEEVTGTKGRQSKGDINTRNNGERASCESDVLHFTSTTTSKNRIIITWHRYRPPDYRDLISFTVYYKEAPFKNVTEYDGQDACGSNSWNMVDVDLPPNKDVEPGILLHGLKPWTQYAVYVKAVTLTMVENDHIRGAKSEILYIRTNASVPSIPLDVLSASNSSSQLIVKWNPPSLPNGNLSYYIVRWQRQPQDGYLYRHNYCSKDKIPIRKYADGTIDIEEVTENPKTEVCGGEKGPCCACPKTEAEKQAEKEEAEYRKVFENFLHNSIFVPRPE
Sequence (P08069 741-1367 limits assumed): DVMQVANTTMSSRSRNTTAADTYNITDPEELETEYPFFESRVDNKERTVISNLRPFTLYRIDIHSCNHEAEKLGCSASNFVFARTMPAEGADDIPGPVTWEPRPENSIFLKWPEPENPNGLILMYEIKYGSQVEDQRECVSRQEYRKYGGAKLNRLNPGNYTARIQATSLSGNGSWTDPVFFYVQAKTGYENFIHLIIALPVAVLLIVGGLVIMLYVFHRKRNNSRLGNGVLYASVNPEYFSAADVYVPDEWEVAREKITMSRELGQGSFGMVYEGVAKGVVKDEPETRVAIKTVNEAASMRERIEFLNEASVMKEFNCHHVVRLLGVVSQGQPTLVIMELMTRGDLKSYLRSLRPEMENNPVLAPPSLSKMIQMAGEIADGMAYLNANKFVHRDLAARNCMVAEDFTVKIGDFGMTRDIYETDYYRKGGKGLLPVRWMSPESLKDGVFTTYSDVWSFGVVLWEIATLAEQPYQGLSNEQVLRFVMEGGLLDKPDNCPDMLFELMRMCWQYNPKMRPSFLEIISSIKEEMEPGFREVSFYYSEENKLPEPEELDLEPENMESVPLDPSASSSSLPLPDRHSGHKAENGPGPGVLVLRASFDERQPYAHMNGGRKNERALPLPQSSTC
Reported endpoint: IC50

Ask: Bench note: what IC50 did O=C(Nc1cccc(-c2ccnc3cc(-c4ccncc4)nn23)c1)c1cccc(C(F)(F)F)c1 show?
Reply: > 50 µM

* * *

Test target: Inhibitor of nuclear factor kappa-B kinase subunit beta (Homo sapiens, UniProt O14920)
Sequence (O14920 whole entry): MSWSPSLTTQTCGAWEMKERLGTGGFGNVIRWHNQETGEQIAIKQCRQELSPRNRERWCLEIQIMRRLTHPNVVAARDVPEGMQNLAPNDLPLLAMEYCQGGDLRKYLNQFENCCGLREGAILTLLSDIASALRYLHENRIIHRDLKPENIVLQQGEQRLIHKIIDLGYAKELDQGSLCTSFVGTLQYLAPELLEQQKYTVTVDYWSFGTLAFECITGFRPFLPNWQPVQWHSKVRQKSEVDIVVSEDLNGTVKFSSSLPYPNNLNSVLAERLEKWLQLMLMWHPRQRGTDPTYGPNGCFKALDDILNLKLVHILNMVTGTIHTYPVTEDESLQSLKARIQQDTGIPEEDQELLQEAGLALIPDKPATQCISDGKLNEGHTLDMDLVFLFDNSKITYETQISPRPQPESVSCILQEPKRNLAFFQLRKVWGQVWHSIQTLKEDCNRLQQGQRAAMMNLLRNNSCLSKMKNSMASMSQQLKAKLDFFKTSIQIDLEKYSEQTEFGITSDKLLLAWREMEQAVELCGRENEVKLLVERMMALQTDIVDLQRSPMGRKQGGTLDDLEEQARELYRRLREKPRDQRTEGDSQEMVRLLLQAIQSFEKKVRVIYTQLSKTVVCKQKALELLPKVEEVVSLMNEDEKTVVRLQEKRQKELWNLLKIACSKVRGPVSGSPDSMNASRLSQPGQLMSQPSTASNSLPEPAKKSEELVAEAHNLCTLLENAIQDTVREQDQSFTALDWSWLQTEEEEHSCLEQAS
Test description: Inhibition of IKK-beta
pIC50: −log10 of the molar value.
Reported endpoint: pIC50

Ask: Bench note: what pIC50 did O=C(Nc1cccc(-c2ccnc3cc(-c4ccncc4)nn23)c1)c1cccc(C(F)(F)F)c1 show?
Reply: < 4.30

* * *

Tested on: LoVo
Test description: Antiproliferative activity against human LoVo cells
Assay type: functional, cell-based
Reported endpoint: IC50 (nM)
Express your answer in nM, writing the number without its unit.

Ask: Bench note: what IC50 did O=C(Nc1cccc(-c2ccnc3cc(-c4ccncc4)nn23)c1)c1cccc(C(F)(F)F)c1 show?
Reply: 400

* * *

Test target: Serine/threonine-protein kinase Chk1 (Homo sapiens, UniProt O14757)
Sequence (O14757 whole entry): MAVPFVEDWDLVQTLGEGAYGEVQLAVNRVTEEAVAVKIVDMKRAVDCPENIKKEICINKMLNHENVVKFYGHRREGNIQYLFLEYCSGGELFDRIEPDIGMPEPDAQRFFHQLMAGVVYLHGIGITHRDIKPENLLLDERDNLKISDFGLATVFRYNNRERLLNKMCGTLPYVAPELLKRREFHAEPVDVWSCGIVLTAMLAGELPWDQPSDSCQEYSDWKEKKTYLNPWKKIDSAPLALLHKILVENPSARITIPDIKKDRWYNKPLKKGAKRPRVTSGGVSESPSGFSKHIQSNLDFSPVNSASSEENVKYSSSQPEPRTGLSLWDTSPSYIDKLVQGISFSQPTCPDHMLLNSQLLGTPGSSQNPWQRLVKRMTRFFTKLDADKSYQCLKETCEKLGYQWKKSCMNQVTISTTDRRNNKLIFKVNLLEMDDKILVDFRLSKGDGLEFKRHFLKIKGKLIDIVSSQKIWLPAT
Reported endpoint: IC50

Ask: Observed IC50 on Serine/threonine-protein kinase Chk1 (Homo sapiens, UniProt O14757) for O=C(Nc1cccc(-c2ccnc3cc(-c4ccncc4)nn23)c1)c1cccc(C(F)(F)F)c1 , please.
Reply: > 50 µM

* * *

Test target: Tyrosine-protein kinase ABL1 (Homo sapiens)
Sequence (P00519 whole entry): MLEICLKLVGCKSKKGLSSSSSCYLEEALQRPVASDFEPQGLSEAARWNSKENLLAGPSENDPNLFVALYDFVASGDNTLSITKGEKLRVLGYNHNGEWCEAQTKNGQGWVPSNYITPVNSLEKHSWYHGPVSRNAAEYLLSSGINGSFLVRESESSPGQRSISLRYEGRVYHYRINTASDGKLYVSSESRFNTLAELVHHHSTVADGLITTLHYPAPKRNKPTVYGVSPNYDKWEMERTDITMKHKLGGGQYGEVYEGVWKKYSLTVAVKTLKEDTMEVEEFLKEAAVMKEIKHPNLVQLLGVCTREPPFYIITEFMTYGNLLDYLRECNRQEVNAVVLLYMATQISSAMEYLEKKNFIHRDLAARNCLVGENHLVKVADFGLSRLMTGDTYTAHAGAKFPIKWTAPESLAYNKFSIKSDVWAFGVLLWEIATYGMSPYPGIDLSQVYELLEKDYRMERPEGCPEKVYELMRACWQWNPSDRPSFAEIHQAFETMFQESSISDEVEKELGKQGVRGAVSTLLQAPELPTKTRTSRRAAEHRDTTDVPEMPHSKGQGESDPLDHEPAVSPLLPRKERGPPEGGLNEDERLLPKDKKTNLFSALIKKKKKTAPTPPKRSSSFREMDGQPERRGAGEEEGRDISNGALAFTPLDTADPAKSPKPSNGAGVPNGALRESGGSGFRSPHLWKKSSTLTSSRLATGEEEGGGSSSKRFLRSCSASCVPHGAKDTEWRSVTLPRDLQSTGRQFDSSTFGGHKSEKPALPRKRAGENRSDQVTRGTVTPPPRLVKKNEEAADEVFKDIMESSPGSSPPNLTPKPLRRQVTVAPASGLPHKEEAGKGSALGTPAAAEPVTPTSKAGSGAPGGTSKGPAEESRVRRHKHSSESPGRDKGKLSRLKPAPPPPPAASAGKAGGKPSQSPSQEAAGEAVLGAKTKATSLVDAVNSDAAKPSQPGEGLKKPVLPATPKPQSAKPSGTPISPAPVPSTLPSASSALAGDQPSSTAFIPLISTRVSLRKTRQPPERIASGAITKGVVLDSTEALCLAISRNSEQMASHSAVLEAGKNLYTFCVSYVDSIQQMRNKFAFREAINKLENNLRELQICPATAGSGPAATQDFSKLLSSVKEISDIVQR
pIC50: −log10 of the molar value.
Reported endpoint: pIC50

Ask: Bench note: what pIC50 did O=C(Nc1cccc(-c2ccnc3cc(-c4ccncc4)nn23)c1)c1cccc(C(F)(F)F)c1 show?
Reply: < 4.30

* * *

Test target: Serine/threonine-protein kinase PLK1 (Homo sapiens)
Sequence (P53350 whole entry): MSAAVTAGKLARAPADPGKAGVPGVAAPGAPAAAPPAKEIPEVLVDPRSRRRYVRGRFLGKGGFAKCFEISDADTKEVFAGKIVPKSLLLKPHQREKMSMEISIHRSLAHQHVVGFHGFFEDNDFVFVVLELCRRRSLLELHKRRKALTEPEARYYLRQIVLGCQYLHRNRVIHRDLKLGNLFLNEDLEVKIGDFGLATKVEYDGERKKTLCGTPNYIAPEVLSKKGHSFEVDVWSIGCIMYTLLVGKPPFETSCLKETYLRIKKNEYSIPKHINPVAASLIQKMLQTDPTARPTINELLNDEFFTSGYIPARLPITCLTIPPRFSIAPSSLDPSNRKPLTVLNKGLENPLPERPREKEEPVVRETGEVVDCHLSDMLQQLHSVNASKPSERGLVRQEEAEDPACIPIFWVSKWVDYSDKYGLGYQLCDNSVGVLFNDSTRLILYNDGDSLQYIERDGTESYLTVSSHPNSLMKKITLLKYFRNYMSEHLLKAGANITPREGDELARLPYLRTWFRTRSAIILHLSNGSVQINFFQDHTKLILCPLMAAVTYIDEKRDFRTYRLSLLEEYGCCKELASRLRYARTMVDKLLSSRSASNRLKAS
Reported endpoint: IC50

Ask: Bench note: what IC50 did O=C(Nc1cccc(-c2ccnc3cc(-c4ccncc4)nn23)c1)c1cccc(C(F)(F)F)c1 show?
Reply: > 50 µM

* * *

Test system: A-375
Test description: Antiproliferative activity against human A375 cells
Format: functional, cell-based
Reported endpoint: IC50
Don't forget the unit after the number, please.

Ask: Bench note: what IC50 did O=C(Nc1cccc(-c2ccnc3cc(-c4ccncc4)nn23)c1)c1cccc(C(F)(F)F)c1 show?
Reply: 280 nM
